# protocol: Olopatadine solubility in water and in formulations
# Assay type: physicochemical
# conditions: pH 6.97, aqueous with cosolvent or surfactant or cyclodextrin, Concentration (mg/mL) of solubilized olopatadine, 4% PVP K29/32, 1.5% SBE-CD, 4% PEG 400, no HPMC, final pH 6.97
metric: solubility (µg/mL)
Numeric only. Scale: µg/mL

Requested read-out: solubility. Entry: CN(C)CC/C=C1/c2ccccc2COc2ccc(CC(=O)O)cc21
6130

----------
# protocol: Olopatadine solubility in water and in formulations
# Type: physicochemical
# conditions: pH 6.97, aqueous with cosolvent or surfactant or cyclodextrin, Concentration (mg/mL) of solubilized olopatadine, 4% PVP K29/32, 2.0% SBE-CD, 4% PEG 400, no HPMC, final pH 6.97
metric: solubility (µg/mL)
Numeric only. Scale: µg/mL

Requested read-out: solubility. Entry: CN(C)CC/C=C1/c2ccccc2COc2ccc(CC(=O)O)cc21
6740

Data origin, for the record: patent US8791154B2
